Target: KRAS(G12D)/SOS1 (Homo sapiens, UniProt P01116, G12D)
Sequence (P01116 1-188 isoform P01116-2 G12D): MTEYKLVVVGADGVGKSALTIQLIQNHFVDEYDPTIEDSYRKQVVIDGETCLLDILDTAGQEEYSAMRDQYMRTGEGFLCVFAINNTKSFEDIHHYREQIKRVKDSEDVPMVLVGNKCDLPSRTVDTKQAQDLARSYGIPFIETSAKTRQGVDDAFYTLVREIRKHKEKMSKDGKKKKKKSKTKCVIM
Assay: KRAS(G12D)/SOS1 homogeneous time-resolved fluorescence (HTRF) assay
Settings: absence of GTP; 4° C., 3 hr
pIC50: −log10 of the molar value.
For each record, write down the corresponding pIC50.

Q. Field request: pIC50 | item: C#Cc1c(F)ccc2cc(O)cc(-c3nc(OC)c4c(N5CC6CNC(C6)C5)nc(OCC5(CN6CCN(Cc7ccc(-n8c(C(=O)NCC)nnc8-c8cc(C(C)C)c(O)cc8O)cc7)CC6)CC5)nc4c3F)c12 (stereo not drawn) [Compound 189]
A. > 7.00

Q. Field request: pIC50 | item: CC(C)c1cc(C(=O)N2Cc3ccc(CN4CCN([C@H]5C[C@@H](COc6nc(N7CC8CCC(C7)N8)c7cnc(-c8cccc9ccccc89)c(F)c7n6)N(C)C5)CC4)cc3C2)c(O)cc1O [Compound 35]
A. < 6.00

Q. Field request: pIC50 | item: CCNC(=O)c1nnc(-c2cc(C(C)C)c(O)cc2O)n1-c1ccc(CN2CCN([C@H]3C[C@@H](COc4nc(N5CC6CNC(C6)C5)c5cnc(-c6cccc7cccc(C)c67)c(F)c5n4)N(C)C3)CC2)cc1 (stereo partly drawn) [Compound 69]
A. < 6.00

Q. Field request: pIC50 | item: C#Cc1c(F)ccc2cc(O)cc(-c3nc(OC)c4c(N5CC6CCC(C5)N6)nc(OCC5(CN6CCN(C7CCN(Cc8ccc(-n9c(C(=O)NC(C)C(F)(F)F)nnc9-c9cc(C(C)C)c(O)cc9O)cc8)CC7)CC6)CC5)nc4c3F)c12 (stereo not drawn) [Compound 178]
A. > 7.00

Q. Field request: pIC50 | item: C#Cc1cccc2cc(O)cc(-c3ncc4c(N5CC6CCC(C5)N6)nc(OCC5(CN6CCC(C(=O)N7CCN(Cc8ccc(-n9c(C(=O)NCC(F)(F)F)nnc9-c9cc(C(C)C)c(O)cc9O)cc8)CC7)CC6)CC5)nc4c3F)c12 [Compound 119]
A. > 7.00

Q. Field request: pIC50 | item: Cc1c(F)cccc1-c1ncc2c(N3CC4CCC(C3)N4)nc(OC[C@@H]3C[C@H](N4CCN(Cc5ccc(-n6c(C(=O)NC(C)C(F)(F)F)nnc6-c6cc(C(C)C)c(O)cc6O)cc5)CC4)CN3C)nc2c1F (stereo partly drawn) [Compound 78]
A. < 6.00

Q. Field request: pIC50 | item: CCNC(=O)c1nnc(-c2cc(C(C)C)c(O)cc2O)n1-c1ccc(CN2CCN([C@H]3C[C@@H](COc4nc(N5CC6CNC(C6)C5)c5cnc(-c6cc(O)cc7ccccc67)c(F)c5n4)N(C)C3)CC2)cc1 (stereo partly drawn) [Compound 85]
A. < 6.00

Q. Field request: pIC50 | item: C#Cc1cccc2cc(O)cc(-c3ncc4c(N5CC6CCC(C5)N6C(C)=O)nc(OCC5(CN6CCN(CC7CCN(Cc8ccc9c(c8)CN(C(=O)c8cc(C(C)C)c(O)cc8O)C9)CC7)CC6)CC5)nc4c3F)c12 [Compound 151]
A. > 7.00

Q. Field request: pIC50 | item: CCNC(=O)c1nnc(-c2cc(C(C)C)c(O)cc2O)n1-c1ccc(CN2CCN(C[C@H]3CC[C@@H](COc4nc(N5CC6CCC(C5)N6)c5cnc(-c6cc(O)cc7ccccc67)c(F)c5n4)N3C)CC2)cc1 [Compound 65]
A. > 7.00

Q. Field request: pIC50 | item: CC(C)c1cc(C(=O)N2Cc3ccc(CN4CCC(C(=O)N5CCN([C@H]6C[C@@H](COc7nc(N8CC9CCC(C8)N9)c8cnc(-c9ccccc9C(F)(F)F)c(F)c8n7)N(C)C6)CC5)CC4)cc3C2)c(O)cc1O [Compound 91]
A. < 6.00

Q. Field request: pIC50 | item: C#Cc1cccc2cccc(-c3ncc4c(N5CC6CCC(C5)N6)nc(OCC5(CN6CCN(Cc7ccc(-n8c(C(=O)NCC)nnc8-c8cc(C(C)C)c(O)cc8O)cc7)CC6)CC5)nc4c3F)c12 [Compound 12]
A. > 7.00

Q. Field request: pIC50 | item: C#Cc1cccc2cc(O)cc(-c3ncc4c(N5CC6CCC(C5)N6)nc(OCC5(CN6CCC(C(=O)N7CCN(Cc8ccc9c(c8)CN(C(=O)c8cc(C(C)C)c(O)cc8O)C9)CC7)CC6)CC5)nc4c3F)c12 [Example 3]
A. > 7.00

Q. Field request: pIC50 | item: C#Cc1c(F)ccc2cc(O)cc(-c3nc(OC)c4c(N5CC6CCC(C5)N6)nc(OCC5(CN6CCN(Cc7ccc8c(c7)CN(C(=O)c7cc(C(C)C)c(O)cc7O)C8)CC6)CC5)nc4c3F)c12 [Compound 190]
A. > 7.00

Q. Field request: pIC50 | item: C#Cc1cccc2cc(O)cc(-c3ncc4c(N5CC6CCC(C5)N6C(=O)C(F)(F)F)nc(OCC5(CN6CCN(CC7CCN(Cc8ccc9c(c8)CN(C(=O)c8cc(C(C)C)c(O)cc8O)C9)CC7)CC6)CC5)nc4c3F)c12 [Compound 142]
A. 6.00 to 7.00

Q. Field request: pIC50 | item: Cc1cccc2cccc(-c3ncc4c(N5CC6CCC(C5)N6)nc(OC[C@@H]5CC[C@H](CN6CCN(C(=O)C7CCN(Cc8ccc9c(c8)CN(C(=O)c8cc(C(C)C)c(O)cc8O)C9)CC7)CC6)N5C)nc4c3F)c12 [Compound 94]
A. 6.00 to 7.00

Q. Field request: pIC50 | item: CCNC(=O)c1nnc(-c2cc(C(C)C)c(O)cc2O)n1-c1ccc(CN2CCN([C@H]3C[C@@H](COc4nc(N5CC6CCC(C5)N6)c5cnc(-c6ccccc6C(F)(F)F)c(F)c5n4)N(C)C3)CC2)cc1 [Compound 60]
A. < 6.00

Q. Field request: pIC50 | item: CC(C)c1cc(C(=O)N2Cc3ccc(CN4CCN(C[C@H]5CC[C@@H](COc6nc(N7CC8CCC(C7)N8)c7cnc(-c8cccc9cccc(F)c89)c(F)c7n6)N5C)CC4)cc3C2)c(O)cc1O [Compound 76]
A. 6.00 to 7.00

Q. Field request: pIC50 | item: CC(C)c1cc(C(=O)N2Cc3ccc(CN4CCN([C@H]5C[C@@H](COc6nc(N7CC8CCC(C7)N8)c7cnc(-c8cc(O)cc9ccccc89)c(F)c7n6)N(C)C5)CC4)cc3C2)c(O)cc1O [Compound 25]
A. > 7.00
